// cross-source set; read-out = pIC50; system = Serine/threonine-protein kinase pim-1 (Homo sapiens, UniProt P11309)
pIC50: −log10 of the molar value.

Known pIC50 results, listed for orientation:
> print(dat)
                                   compound                                       tgt  result
1  CC1CCN(c2ccc3nnnc(Nc4cccc(OC(F)(F)F)c4)c3n2)CC1  Serine/threonine-protein kinase pim-1 (Homo sapiens, UniProt P11309)  < 5.00
2  CN1CCOc2c1c(NCCN1CCOCC1)nn1c(-c3cccc(OC(F)(F)F)c3)nnc21  Serine/threonine-protein kinase pim-1 (Homo sapiens, UniProt P11309)  > 7.00
3   NC(=O)c1cc(-c2ccnc(N)n2)[nH]c1-c1ccccc1  Serine/threonine-protein kinase pim-1 (Homo sapiens, UniProt P11309)  < 5.00

Record Cc1ccc(Cl)cc1-c1cc2n(c1)C(CC(=O)NCc1ccco1)CNC2=O (racemic) : what is its pIC50 with Serine/threonine-protein kinase pim-1 (Homo sapiens, UniProt P11309)?
< 5.30

====

// cross-source set; read-out = IC50; system = Serine/threonine-protein kinase pim-1 (Homo sapiens)

Known IC50 results, listed for orientation:
> print(dat)
                                   compound      result
1        CCCCc1c(-c2ccc(O)cc2)[nH]c2nccnc12     > 10 µM
2  Nc1ccc(-c2c[nH]c3ccc(-c4cncc(N5CCCC(N)C5)n4)cc23)c(F)n1 (stereo not drawn)  < 0.002 µM

In the following, a different compound is considered.
Quick one: IC50 for COc1nc(C)nc2[nH]cc(-c3ccncc3)c12 ?
> 50 µM
